tested on: ubiquinone-binding site of complex I (site IQ); test: Site-specific H2O2 production from site IQ in skeletal muscle mitochondria; assay type: biochemical, rat; conditions: 80 μM; 5 mM succinate;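 also: H2O2 from superoxide detected by Amplex UltraRed fluorescence with added superoxide dismutase and horseradish peroxidase, endpoint read 30–40 min after substrate addition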
What IQ H2O2 production with 5 mM Suc (% change at 80 μM) was measured for each of the following?
Give bare numbers, in %.

Example entries begin here.
>  <COMPOUND>
CCCC(=O)Nc1ccc(-c2nc3cc4ccccc4cc3[nH]2)cc1 [iGP-9]

>  <UNIT_TAG>
%

>  <MEASUREMENT>
-1

$$$$
>  <COMPOUND>
O=C(Nc1ccc(-c2nc3ccccc3[nH]2)cc1)C1CC1 [iGP-16]

>  <UNIT_TAG>
%

>  <MEASUREMENT>
-24

$$$$
>  <COMPOUND>
CCOc1ccc(C(=O)Nc2ccc(-c3nc4ccccc4[nH]3)cc2)cc1 [iGP-15]

>  <UNIT_TAG>
%

>  <MEASUREMENT>
-15

$$$$
>  <COMPOUND>
COC(=O)CCC(=O)Nc1ccc(C)cc1 [iGP-20]

>  <UNIT_TAG>
%

>  <MEASUREMENT>
-8

$$$$
>  <COMPOUND>
O=C(O)CCC(=O)Nc1ccc(-c2nc3ccccc3s2)cc1 [iGP-3]

>  <UNIT_TAG>
%

>  <MEASUREMENT>
-69

$$$$

// each listed compound needs a value for IQ H2O2 production with 5 mM Suc (% change at 80 μM)
1. O=C(Nc1ccc(-c2nc3ccccc3[nH]2)cc1)c1ccco1 [iGP-13]
2. c1ccc2[nH]c(-c3ccc(-c4nc5ccccc5[nH]4)cc3)nc2c1 [iGP-10]
3. O=C(O)CCC(=O)Nc1ccc(Cl)cc1 [iGP-18]
4. CC(=O)Nc1ccc(-c2nc3ccccc3[nH]2)cc1 [iGP-12]
5. O=C(O)CCC(=O)Nc1ccc(-c2nc3cc(C(=O)c4ccccc4)ccc3[nH]2)cc1 [iGP-6]

1: -82; 2: -77; 3: 6; 4: -21; 5: -28

---

Record form. Attribute: IC50. Fill in for each entry.
Molecular target: mGPDH (Rattus norvegicus)
Construct: from tissue; host or cells: skeletal muscle mitochondria
Sequence (P35571 43-727): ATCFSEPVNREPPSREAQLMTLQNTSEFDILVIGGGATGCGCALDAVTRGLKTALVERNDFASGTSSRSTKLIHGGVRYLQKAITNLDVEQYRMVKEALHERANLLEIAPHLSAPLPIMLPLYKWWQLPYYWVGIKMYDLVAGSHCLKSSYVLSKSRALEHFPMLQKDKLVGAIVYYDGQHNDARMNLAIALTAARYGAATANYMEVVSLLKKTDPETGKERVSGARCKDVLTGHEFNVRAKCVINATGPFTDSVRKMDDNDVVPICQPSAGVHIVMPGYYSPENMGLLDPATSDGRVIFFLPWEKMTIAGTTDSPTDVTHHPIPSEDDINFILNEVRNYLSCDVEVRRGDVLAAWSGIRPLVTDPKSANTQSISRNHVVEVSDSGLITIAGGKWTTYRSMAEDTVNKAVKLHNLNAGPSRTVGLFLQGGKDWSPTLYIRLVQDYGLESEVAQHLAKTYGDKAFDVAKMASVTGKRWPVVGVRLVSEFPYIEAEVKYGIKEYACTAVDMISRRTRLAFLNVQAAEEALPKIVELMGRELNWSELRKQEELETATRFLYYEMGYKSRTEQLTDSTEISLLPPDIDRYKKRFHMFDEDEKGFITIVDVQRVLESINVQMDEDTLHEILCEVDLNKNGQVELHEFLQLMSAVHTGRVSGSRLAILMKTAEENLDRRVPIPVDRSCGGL
Test: mGPDH enzymatic activity (DCPIP-linked reduction by glycerol phosphate) in frozen-thawed skeletal muscle mitochondria
Assay type: biochemical
Conditions: 1 µM free calcium; Fig. 9A
One number for each entry, in µM.

>  <SMILES_STRUCTURE>
O=C(O)CCC(=O)Nc1ccc(-c2nc3ccccc3[nH]2)cc1

>  <TESTED_ON>
mGPDH (Rattus norvegicus)

>  <MEASUREMENT_KIND>
IC50

>  <MEASUREMENT>
6.3

$$$$

// moving on: another record for IC50
Kindly note the recorded IC50 for O=C(O)CCC(=O)Nc1ccc(-c2nc3cc4ccccc4cc3[nH]2)cc1 , which is 1

---

target: outer ubiquinone-binding site of complex III (site IIIQo) (Rattus norvegicus, UniProt P00159+P20788); construct: from tissue; host or cells: skeletal muscle mitochondria; assay: Site-specific H2O2 production from site IIIQo in skeletal muscle mitochondria; type: biochemical; conditions: primary screen, ∼2.5 µM, average of duplicates; 5 mM succinate
I'd appreciate it if you could supply IIIQo (% change from DMSO) values for the items below.
Give bare numbers, in %.

>  <COMPOUND>
O=[N+]([O-])c1ccc2[nH]c(-c3ccccc3)cc2c1 [compound 5107950]

>  <MEASUREMENT_KIND>
IIIQo (% change from DMSO)

>  <MEASUREMENT>
46.2

$$$$
>  <COMPOUND>
CC(C)CSC(CC(=O)O)C(=O)O (centres unmarked) [compound 5152843]

>  <MEASUREMENT_KIND>
IIIQo (% change from DMSO)

>  <MEASUREMENT>
-15.7

$$$$
>  <COMPOUND>
COc1ccc(O)c(CN2CCC(N3CCCCC3)CC2)c1 [compound 5410291]

>  <MEASUREMENT_KIND>
IIIQo (% change from DMSO)

>  <MEASUREMENT>
-19.0

$$$$
>  <COMPOUND>
CCN1CCN(C/C=C/c2ccc(N(C)C)cc2)CC1 [compound 5424907]

>  <MEASUREMENT_KIND>
IIIQo (% change from DMSO)

>  <MEASUREMENT>
-5.7

$$$$
>  <COMPOUND>
c1coc(CNc2ccc3c(c2)OCO3)c1 [compound 5457094]

>  <MEASUREMENT_KIND>
IIIQo (% change from DMSO)

>  <MEASUREMENT>
-17.4

$$$$

For each of the compounds below, note its IIIQo (% change from DMSO).
1. CN(C)c1nc2ccc(O)cc2s1 [compound 5195231]
2. CC(=O)N(C)c1ccc(NC(=O)c2ccc(-c3ccccc3)cc2)cc1 [compound 5191683]

1: -41.2; 2: -9.7

Would you mind listing IIIQo (% change from DMSO) for each of the following compounds?
1. O=C(O)CCC(=O)Nc1ccc(-c2nc3ccccc3[nH]2)cc1 [iGP-1]
2. Nc1nc(-c2ccc(Cl)c(Cl)c2)cs1 [compound 5690819]

-0.246
-4.6

---

Hi there, I'd appreciate the recorded IIIQo (% change from DMSO) for every entry that follows.
Target: outer ubiquinone-binding site of complex III (site IIIQo) (Rattus norvegicus, UniProt P00159+P20788)
Construct: from tissue; host or cells: skeletal muscle mitochondria
Test: Site-specific H2O2 production from site IIIQo in skeletal muscle mitochondria
Assay type: biochemical
Conditions: primary screen, ∼2.5 µM, average of duplicates; 5 mM succinate
Description: Superoxide was measured as H2O2 after dismutation by endogenous or exogenous superoxide dismutase. Rates of total superoxide/H2O2 production were measured fluorimetrically using Amplex UltraRed in the presence of exogenous superoxide dismutase and horseradish peroxidase in a Varian Cary Eclipse fluorimeter as previously described. […]
Give bare numbers, in %.

# annotated cases, reported IIIQo (% change from DMSO) shown
>  <COMPOUND>
COc1ccc(C(=O)Nc2ccc(S(=O)(=O)Nc3nc(C)cc(C)n3)cc2)c(OC)c1

>  <MEASUREMENT_KIND>
IIIQo (% change from DMSO)

>  <MEASUREMENT>
-8.8

$$$$
>  <COMPOUND>
COc1ccc(NCc2ccccc2)cc1

>  <MEASUREMENT_KIND>
IIIQo (% change from DMSO)

>  <MEASUREMENT>
-6.9

$$$$
>  <COMPOUND>
CCCCc1c(C(=O)O)cc(C)cc1C(=O)O

>  <MEASUREMENT_KIND>
IIIQo (% change from DMSO)

>  <MEASUREMENT>
-6.2

$$$$
>  <COMPOUND>
O=C1c2ccccc2C(=O)N1CCc1c[nH]c2ccc(O)cc12

>  <MEASUREMENT_KIND>
IIIQo (% change from DMSO)

>  <MEASUREMENT>
-35.4

$$$$
>  <COMPOUND>
O=S(=O)(Nc1ccc(O)c(Br)c1)c1ccc(Cl)cc1

>  <MEASUREMENT_KIND>
IIIQo (% change from DMSO)

>  <MEASUREMENT>
-42.6

$$$$
>  <COMPOUND>
Cc1nc2ccc(Cl)cc2c2c(N)c3ccccc3n12

>  <MEASUREMENT_KIND>
IIIQo (% change from DMSO)

>  <MEASUREMENT>
-23.3

$$$$
>  <COMPOUND>
COc1ccc(NCC2CCCCC2)cc1

>  <MEASUREMENT_KIND>
IIIQo (% change from DMSO)

>  <MEASUREMENT>
-14.3

$$$$
>  <COMPOUND>
CC(=O)c1c(C)n(-c2ccccc2)c2ccc(O)cc12

>  <MEASUREMENT_KIND>
IIIQo (% change from DMSO)

>  <MEASUREMENT>
-6.4

$$$$

Reported IIIQo (% change from DMSO) ( O=C1N=C(c2ccccc2)C(c2ccccc2)N1 (stereo not drawn) ) = -23.8

Value source: paper PMC3933693
